B1: NETO1 (parent)
chain: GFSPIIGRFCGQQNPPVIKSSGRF

# Variants of: B1
# Protocol Description: protein stability index of a GFP-peptide fusion (GPS, HEK-293T) (PSI 1-6); higher = more stable;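 also: lentivirally expressed fusions sorted by FACS into six bins by GFP to DsRed ratio, PSI derived from sequencing read proportions per bin multiplied by bin number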
# Particulars: c terminus: a fixed tail appended
Collected protein stability index values appear next to each entry.

{"Variant Annotation": "I18H", "protein stability index": 1.76}
{"Variant Annotation": "P4C", "protein stability index": 1.88}
{"Variant Annotation": "S3L", "protein stability index": 1.68}
{"Variant Annotation": "I5Q", "protein stability index": 2.52}

From here, focus on the item given below.
### Prompt Can you look up the measured protein stability index of G11H for me?
### Response 1.91
